Reference for the values: paper PMC7887755

test system: DNA damage responsive recA and radA reporters; assay type: cell-based, Mycobacterium tuberculosis
measured.parameter: reporter gene assay DNA damage

Study these solved cases before continuing.
[
  {
    "compound": "COc1ccc(-c2cc(=O)n3nc(C)c(-c4ccc(F)cc4)c3[nH]2)cc1 [Compound 4, reference compound]",
    "data.value": "no"
  },
  {
    "compound": "O=c1cc(CC2CCCCC2)[nH]c2c(-c3ccc(Cl)cc3)cnn12 [Compound 2, reference compound]",
    "data.value": "no"
  },
  {
    "compound": "Cc1nn2c(=O)cc(-c3ccccc3)[nH]c2c1-c1ccccc1 [Compound 1]",
    "data.value": "no"
  },
  {
    "compound": "Cc1nn2c(=O)cc(-c3ccc(F)c(F)c3)[nH]c2c1-c1ccccc1 [Compound P19]",
    "data.value": "no"
  }
]

Let us examine a further case.
Data request: // returns reported reporter gene assay DNA damage for input COc1c(N2C[C@@H]3CCCN[C@@H]3C2)c(F)cc2c(=O)c(C(=O)O)cn(C3CC3)c12 [MOX, moxifloxacin]
Data returned: yes

----------
system: Mtb H37Rv; experiment: microbe, parasite or virus in culture; assay type: cell-based, Mycobacterium tuberculosis; settings: Mycobacterium tuberculosis, H37RV; read-out: MIC in 7H9 GCas
measured.parameter: MIC (µM)
All answers are understood in µM, so give the number only.

[
  {
    "input.smiles": "O=c1cc(-c2ccc(F)c(F)c2)[nH]c2c(-c3ccccc3)c(C(F)(F)F)nn12",
    "MIC (µM)": 100
  }
]

Data request: Look up MIC: Cc1nn2c(=O)cc(-c3ccc(F)c(F)c3)[nH]c2c1-c1ccccc1
Data returned: 1.56

Data request: Which value of MIC has been reported for Nc1nn2c(=O)cc(-c3ccccc3)[nH]c2c1-c1ccccc1 in the records?
Data returned: 25

Data request: Quick check: MIC of Cc1nn2c(=O)cc(-c3ccccc3)[nH]c2c1-c1ccccc1 ?
Data returned: 3.12

----------
The entries below come with measured remaining at 2 h values attached.
experiment: Microsomal stability, human; type: in vitro ADME; details: human liver microsomes, read-out: % Remaining after 2 h incubation Human
Numbers only here, please. The scale is %.

Known remaining at 2 h results, listed for orientation:
[
  {
    "input.smiles": "Cc1nn2c(=O)cc(-c3ccccc3)[nH]c2c1-c1ccccc1",
    "measured.parameter": "remaining at 2 h",
    "data.value": 66
  },
  {
    "input.smiles": "Cc1nn2c(=O)cc(-c3ccc(Cl)c(Cl)c3)[nH]c2c1-c1ccccc1",
    "measured.parameter": "remaining at 2 h",
    "data.value": 55
  }
]

# input for lookup
Data request: Dear colleague, I am looking for the recorded remaining at 2 h of the following molecule: Cc1nn2c(=O)cc(-c3ccc(F)c(F)c3)[nH]c2c1-c1ccccc1
Data returned: 77

----------
tested on: Mtb H37Rv; assay: microbe, parasite or virus in culture; format: cell-based, Mycobacterium tuberculosis; conditions: Mycobacterium tuberculosis, H37RV; read-out: MIC in 7H9 ADC
measured.parameter: MIC

The following molecules have reported results that may help.
[
  {
    "molecule": "O=c1[nH]n2c(=O)cc(-c3ccccc3)[nH]c2c1-c1ccccc1 [Compound P3]",
    "MIC": "> 100 µM"
  },
  {
    "molecule": "Cc1nn2c(=O)cc(-c3ccccc3)[nH]c2c1C [Compound P21]",
    "MIC": "> 100 µM"
  },
  {
    "molecule": "CC(C)c1nn2c(=O)cc(-c3ccccc3)[nH]c2c1-c1ccccc1 [Compound P23]",
    "MIC": "> 100 µM"
  },
  {
    "molecule": "O=c1cc(-c2ccc(F)c(F)c2)[nH]c2c(-c3ccccc3)c(C(F)(F)F)nn12 [Compound P27]",
    "MIC": "> 100 µM"
  },
  {
    "molecule": "Cc1nn2c(=O)cc(CC3CCCCC3)[nH]c2c1-c1ccccc1 [Compound P9]",
    "MIC": "> 100 µM"
  }
]

Then this molecule:
Data request: # value lookup — system Mtb H37Rv, readout MIC, item Cc1nn2c(=O)cc(CN3CCOCC3)[nH]c2c1-c1ccccc1 [Compound P10]
Data returned: > 100 µM
